Data origin, for the record: ChEMBL document CHEMBL6114968

# Test system: A204
# assay-method-text: Antiproliferative activity against FGFR1 amplified human A204 cells measured after 72 hrs by CCK-8 assay
# Assay type: functional, cell-based
# protocol-conditions: A204, 72 h
assay-endpoint: IC50 (nM)
Give the number; nM is assumed, so skip it.

molecule: C=C(C)C(=O)Nc1ccc(-c2c(-c3ccc(S4(=O)=NCCCCC4)cc3)c3c(N)ncnc3n2C)c(F)c1 (stereo not drawn)
system-name: A204
IC50 [nM]: 2380

Exercise: Please report the recorded IC50 for CCN1C(=O)N(c2c(F)c(OC)cc(OC)c2F)Cc2cnc3[nH]c(CN4CCOCC4)cc3c21 [PEMIGATINIB] .
Solution: 29.2
